test system: FaDu; assay: mitochondrial oxygen consumption rate normalised to cell number, Z score vs plate DMSO wells; higher = higher oxygen consumption (negative = OCR reduction); conditions: 0.4 µM; treatment time 24 h; assay medium: 5 mM glucose, 5 mM pyruvate, 4 mM glutamine;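 note: compound exposure in DMEM (4 mM L-glutamine, 5 mM glucose), antimycin A injected at 2 µM after the basal reading and its residual OCR subtracted from basal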
For each entry below, report its mitochondrial oxygen consumption rate normalised value.

[
  {
    "SUBSTANCE SMILES": "O=c1[nH]c2ccccc2n1C1CCN(CCCC(c2ccc(F)cc2)c2ccc(F)cc2)CC1",
    "TEST VALUE": 0.719
  },
  {
    "SUBSTANCE SMILES": "S=C=NCc1ccccc1",
    "TEST VALUE": 1.06
  },
  {
    "SUBSTANCE SMILES": "CC(=O)O[C@H]1C[C@H](O[C@H]2[C@@H](O)C[C@H](O[C@H]3[C@@H](O)C[C@H](O[C@H]4CC[C@@]5(C)[C@H](CC[C@@H]6[C@@H]5C[C@@H](O)[C@]5(C)[C@@H](C7=CC(=O)OC7)CC[C@]65O)C4)O[C@@H]3C)O[C@@H]2C)O[C@H](C)[C@H]1O[C@@H]1O[C@H](CO)[C@@H](O)[C@H](O)[C@H]1O",
    "TEST VALUE": -3.22
  },
  {
    "SUBSTANCE SMILES": "C=C1C[C@@H]2[C@H](CC[C@]3(C)C(=O)CC[C@@H]23)[C@@]2(C)C=CC(=O)C=C12",
    "TEST VALUE": 1.24
  },
  {
    "SUBSTANCE SMILES": "CCN1C[C@]2(COC)[C@H](O)C[C@H](OC)[C@@]34[C@@H]5C[C@@]6(O)[C@H](OC(=O)c7ccccc7)[C@@H]5[C@@](OC(C)=O)([C@@H]([C@H](OC)[C@H]23)[C@@H]14)[C@@H](O)[C@@H]6OC",
    "TEST VALUE": 0.916
  }
]

For every item in the list below, what is its measured mitochondrial oxygen consumption rate normalised?
1. CCCCCCCCCCCCCCCC[n+]1ccccc1
2. COc1cc([C@@H]2c3cc4c(cc3[C@H](O)[C@H]3COC(=O)[C@H]23)OCO4)cc(OC)c1OC
3. COc1ccc(Cc2nccc3cc(OC)c(OC)cc23)cc1OC

1. -7.98
2. -0.043
3. 1.06

From: the supplement of paper PMC4962491
